- test_protocol: inhibitors of E-selectin induction by TNFa, primary screen, imaging, HUVEC, immunofluorescence, MLSMR starter and 10KST1 sets (AID 487);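 further: signal is fraction of cell area covered by stained E-selectin grains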
- measurement_setup: HUVEC TNFalpha-induced E-selectin immunofluorescence imaging, at 2 µM; stronger effect = higher value
Parameter threshold = -20%. Response is TRUE when inhibition meets or exceeds it, else FALSE.

The following compounds have reported results that may help.
[
  {
    "compound": "Cc1ccc(-n2ncc3c(N4CCCC4)ncnc32)c(C)c1",
    "assigned_class": "TRUE"
  },
  {
    "compound": "Cc1nc2ccccc2c2oc(C(=O)N3CCC(N4CCCCC4)CC3)cc12",
    "assigned_class": "TRUE"
  },
  {
    "compound": "CC(C)C(c1nnnn1C1CCCC1)N1CCCc2ccccc21 (configuration not stated)",
    "assigned_class": "FALSE"
  }
]

In plain terms: is recorded inhibition at least -20% for `CCCCn1c(CNC(=O)CCC)nc2ccccc21` ?
FALSE

In plain terms: is recorded inhibition at least -20% for `COc1ccc(S(=O)(=O)N2CCN(c3ccc(C)cc3C)CC2)cc1OC` ?
TRUE

In plain terms: is recorded inhibition at least -20% for CCc1ccc2[nH]c(=O)c(C(c3nnnn3CC3CCCO3)N3CCCc4ccccc43)cc2c1 (configuration not stated) ?
TRUE

// provenance: PubChem BioAssay
